- SYSTEM TESTED: Recombinant human MMP12 catalytic domain (Homo sapiens, UniProt P39900)
- Construct: Recombinant human MMP12 catalytic domain
- Sequence (P39900 106-263 limits assumed): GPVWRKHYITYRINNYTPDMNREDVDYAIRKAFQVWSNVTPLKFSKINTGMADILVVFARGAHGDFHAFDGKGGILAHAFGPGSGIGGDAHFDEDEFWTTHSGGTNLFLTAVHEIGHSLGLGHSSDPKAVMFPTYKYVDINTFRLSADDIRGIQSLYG
- PROTOCOL DESCRIPTION: Isolated enzyme assay MMP12 (fluorogenic substrate)
- COND: substrate Mca-Pro-Cha-Gly-Nva-His-Ala-Dpa-NH2 10 μM, 60 minutes at room temperature, pH 7.3, read-out: hMMP12 IC50
- Experimental: Recombinant human MMP12 catalytic domain may be expressed and purified as described by Parkar A. A. et al, (2000), Protein Expression and Purification, 20, 152. […] Activity is determined by measuring the fluorescence at λex 320 nm and λem 405 nm. Percent inhibition is calculated as follows: % Inhibition is equal to the [Fluorescenceplus inhibitor−Fluorescencebackground] divided by the [Fluorescenceminus inhibitor−Fluorescencebackground]. […]
MEASUREMENT NAME: IC50 (nM)

- STRUCTURE AS SMILES: "C[C@]1(CS(=O)(=O)N2CCc3cc(-c4cnc(C(F)(F)F)nc4)ccc3C2)NC(=O)NC1=O"
  IC50 [nM]: 10.4

P. C[C@]1(CS(=O)(=O)N2CCc3cc(-c4ccc(Cl)cc4)ncc3C2)NC(=O)NC1=O
Q. C[C@]1(CS(=O)(=O)N2CCc3cc(-c4ccc(Cl)cc4)ccc3C2)NC(=O)NC1=O
Sorting ascending by IC50, which comes first: P or Q ? Respond using the label that marks the chosen record.
Q
(Q: 1.4 nM, P: 7 nM)
